- subjectOfTest: human Eg5 (Homo sapiens)
- Construct: human Eg5 (N-terminal 405 amino acids and 6-His tagged at C terminus); made in house; host or cells: E. coli BL21 pLysS (DE3), plasmid pRSETa
- Sequence (P52732 1-405 limits assumed): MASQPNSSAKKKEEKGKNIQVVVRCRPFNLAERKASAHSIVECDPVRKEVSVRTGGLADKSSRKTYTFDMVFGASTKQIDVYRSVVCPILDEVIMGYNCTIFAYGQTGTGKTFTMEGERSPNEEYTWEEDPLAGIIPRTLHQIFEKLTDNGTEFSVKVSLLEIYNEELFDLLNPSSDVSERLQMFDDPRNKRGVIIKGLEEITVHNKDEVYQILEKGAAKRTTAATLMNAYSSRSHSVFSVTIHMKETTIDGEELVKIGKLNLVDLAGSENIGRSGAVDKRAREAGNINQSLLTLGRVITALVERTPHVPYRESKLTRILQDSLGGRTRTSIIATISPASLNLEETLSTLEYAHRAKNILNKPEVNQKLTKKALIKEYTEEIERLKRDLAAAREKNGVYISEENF
- protocolSummary: In vitro NADH enzyme coupled ATPase assay with purified recombinant human Eg5 (Eg5-405)
- Type: biochemical
- runConditions: purified recombinant human Eg5, microtubules, 1 mM Mg-ATP; read-out: IC50, inhibition of Eg5 ATPase activity
propertyLabel: IC50 (µM)
One number for each entry, in µM.

Please indicate IC50 recorded for CCOC(=O)C1=C(C)NC(=S)NC1c1cccc(O)c1 (stereo not shown) [monastrol, reference compound]
5.3

###

- subjectOfTest: human Eg5 (Homo sapiens, UniProt P52732)
- Construct: human Eg5 (N-terminal 405 amino acids and 6-His tagged at C terminus); made in house; host or cells: E. coli BL21 pLysS (DE3), plasmid pRSETa
- protocolSummary: In vitro NADH enzyme coupled ATPase assay with purified recombinant human Eg5 (Eg5-405)
- Format: biochemical
propertyLabel: pIC50
Give bare numbers, as −log10 of the molar value.

Please indicate pIC50 recorded for CCCCN1C(=O)C2Cc3c([nH]c4ccccc34)C(c3cccc(O)c3)N2C1=O (stereo not shown) [22C16]
5.96
